# tgt: T1, human IL-13 wild type (human, UniProt P35225 35-146)
# T1 construct: also called h IL-13; h IL-13 wt
# protocol summary: SPR (Biacore), mAb captured, IL-13 as analyte
reported metric: pKd
Please keep in mind that pKd is minus log10 of the molar concentration; only the number is needed.

[[record]]
binder = "6C8 (antibody, V domains shown) VH: QVQLKESGPGLVAPSQSLSITCTVSEFSLTGSSVNWVRQPPGKGLEWLGMIWGDGRIDYNSALKSRLSISKDNSKSQVFLKMNSLQTDDTARYYCARDGYYPYAMNYWGQGTSVTVSS VL: NIVLTQSPASLAVSLGQRATISCRASESVDSYGNSFMHWYQQKPGQPPKLLIYLASNLESGVPARFSGSGSRADFTLTIDPVEADDAATYYCQQNNENPRTFGGGTKLEIKR"
observed = 9.32

[[record]]
binder = "1B6 (antibody, V domains shown) VH: QVQLKESGPGLVAPSQSLSITCTVSGFSLTGYGVNWVRQPPGKGLEWLGMIWGDERIDYNSALKSRLSITKDNSKSQVFLKMNSLQTDDTGRYFCARDGYFPYAMDYWGQGTSVTVSS VL: NIVLTQSPASLAVSLGQRATISCRASETVDSYGKSYLHWYQQKPGQPPKLLIYLASNLESGVPARFSGSGSRTDFTLIIDPVEADDAATYYCQQNNEGPRTFGGGTKLEIKR"
observed = 9.26


// next item, pKd requested
# return recorded pKd for entry 25C8 (antibody, V domains shown) VH: QVQLQQPGAELVRPGASVQLSCKASGYTFTSSWIHWVNQRPGQGLEWIGMIHPSDSETRLNQKFKDKATLTVDKSSSTAYMQLSSPTSEDSAVYYCASTATDFDYWGQGTTLTVSS VL: DVVLTQTPLSLPVNIGDQASISCKSTKSLLNSDGFTYLDWYLQKPGQSPQLLIYLVSNRFSGAPDRFSGSGSGTDFTLKISRVEAEDLGVYYCFQHNYLPLTFGAGTNLELKR
10.12
